Biological target: Estrogen receptor (Homo sapiens, UniProt P03372)
Sequence (P03372 whole entry): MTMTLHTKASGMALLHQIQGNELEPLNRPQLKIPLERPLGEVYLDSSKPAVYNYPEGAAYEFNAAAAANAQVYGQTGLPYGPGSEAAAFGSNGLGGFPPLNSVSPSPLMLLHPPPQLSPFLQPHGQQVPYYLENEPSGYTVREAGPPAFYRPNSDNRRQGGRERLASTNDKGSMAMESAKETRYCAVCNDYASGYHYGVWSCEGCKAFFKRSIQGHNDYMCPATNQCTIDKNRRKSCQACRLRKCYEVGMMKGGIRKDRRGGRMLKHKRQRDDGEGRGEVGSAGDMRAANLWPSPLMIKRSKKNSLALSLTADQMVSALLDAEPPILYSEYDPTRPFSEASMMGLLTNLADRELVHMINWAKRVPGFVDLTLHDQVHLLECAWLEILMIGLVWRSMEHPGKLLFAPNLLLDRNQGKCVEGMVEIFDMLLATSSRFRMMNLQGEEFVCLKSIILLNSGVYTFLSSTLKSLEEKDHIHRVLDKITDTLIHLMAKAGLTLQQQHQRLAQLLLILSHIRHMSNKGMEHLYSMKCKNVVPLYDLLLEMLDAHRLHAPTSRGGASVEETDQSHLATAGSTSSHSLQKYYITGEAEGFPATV
Assay: Inhibition of binding to ER in Ad5-wt-ER-infected HAECT1 cells by NF-kappaB-mediated luciferase reporter
Format: functional, cell-based
Conditions: read-out: IC50
Threshold 300 nM: IC50 strictly smaller gives YES, otherwise NO.

# Item smiles, Experimental system, Group
rows = [
    ("CCN(c1ccccc1OC)S(=O)(=O)c1ccc(O)cc1", "Estrogen receptor (Homo sapiens, UniProt P03372)", "NO"),
    ("CCCCN(c1ccccc1)S(=O)(=O)c1ccc(O)cc1", "Estrogen receptor (Homo sapiens, UniProt P03372)", "NO"),
    ("O=S(=O)(c1ccc(O)cc1)N(Cc1ccccc1)c1ccccc1", "Estrogen receptor (Homo sapiens, UniProt P03372)", "NO"),
    ("CCCN(c1ccccc1Cl)S(=O)(=O)c1ccc(O)cc1", "Estrogen receptor (Homo sapiens, UniProt P03372)", "YES"),
    ("CCN(c1cccc(OC)c1)S(=O)(=O)c1ccc(O)cc1", "Estrogen receptor (Homo sapiens, UniProt P03372)", "NO"),
    ("O=S(=O)(c1ccc(O)cc1)N(c1ccccc1)C1CCCCC1", "Estrogen receptor (Homo sapiens, UniProt P03372)", "NO"),
    ("CCCN(c1c(C)cccc1CC)S(=O)(=O)c1ccc(O)c(C)c1", "Estrogen receptor (Homo sapiens, UniProt P03372)", "YES"),
    ("CCCN(c1ccccc1C(F)(F)F)S(=O)(=O)c1ccc(O)cc1", "Estrogen receptor (Homo sapiens, UniProt P03372)", "YES"),
    ("CC(C)N(c1ccccc1)S(=O)(=O)c1ccc(O)cc1", "Estrogen receptor (Homo sapiens, UniProt P03372)", "NO"),
    ("CCCN(c1c(Cl)cccc1Cl)S(=O)(=O)c1ccc(O)c(C)c1", "Estrogen receptor (Homo sapiens, UniProt P03372)", "YES"),
    ("CCCN(c1ccccc1-c1ccccc1)S(=O)(=O)c1ccc(O)c(C)c1", "Estrogen receptor (Homo sapiens, UniProt P03372)", "YES"),
    ("CCCN(c1ccccc1F)S(=O)(=O)c1ccc(O)cc1", "Estrogen receptor (Homo sapiens, UniProt P03372)", "YES"),
    ("CCN(c1ccc(O)cc1)S(=O)(=O)c1ccc(O)cc1", "Estrogen receptor (Homo sapiens, UniProt P03372)", "YES"),
    ("O=S(=O)(c1ccc(O)cc1)N(c1ccccc1)c1ccccc1", "Estrogen receptor (Homo sapiens, UniProt P03372)", "NO"),
    ("O=S1(=O)c2ccc(O)cc2CCN1c1ccccc1Cl", "Estrogen receptor (Homo sapiens, UniProt P03372)", "NO"),
    ("CCCN(c1ccccc1Br)S(=O)(=O)c1ccc(O)c(C(F)(F)F)c1", "Estrogen receptor (Homo sapiens, UniProt P03372)", "YES"),
    ("CCCN(c1ccccc1Cl)S(=O)(=O)c1ccc(O)c(C)c1", "Estrogen receptor (Homo sapiens, UniProt P03372)", "YES"),
    ("CCCN(c1ccccc1Br)S(=O)(=O)c1ccc(O)c(C)c1", "Estrogen receptor (Homo sapiens, UniProt P03372)", "YES"),
    ("CCCN(c1c(C)cccc1Cl)S(=O)(=O)c1ccc(O)cc1", "Estrogen receptor (Homo sapiens, UniProt P03372)", "YES"),
    ("CC(C)(C)CN(c1ccccc1)S(=O)(=O)c1ccc(O)cc1", "Estrogen receptor (Homo sapiens, UniProt P03372)", "NO"),
    ("CCN(c1ccccc1)S(=O)(=O)c1ccc(O)cc1", "Estrogen receptor (Homo sapiens, UniProt P03372)", "NO"),
    ("CCCN(c1ccccc1Br)S(=O)(=O)c1ccc(O)cc1", "Estrogen receptor (Homo sapiens, UniProt P03372)", "YES"),
    ("CCCN(c1c(CC)cccc1CC)S(=O)(=O)c1ccc(O)c(C)c1", "Estrogen receptor (Homo sapiens, UniProt P03372)", "YES"),
]

====

Target: Estrogen receptor (Homo sapiens, UniProt P03372)
Assay: Effect on binding to ER in Ad5-wt-ER-infected HAECT1 cells by creatine kinase expression
Type: functional, cell-based
Conditions: read-out: EC50

# Molecule, EC50
measured = [
    ("CC1CCc2ccccc2N1S(=O)(=O)c1ccc(O)cc1 (stereo not drawn)", "> 1000 nM"),
    ("CC(C)(C)CN(c1ccccc1)S(=O)(=O)c1ccc(O)cc1", "> 2500 nM"),
    ("CCCN(c1ccccc1-c1ccccc1)S(=O)(=O)c1ccc(O)c(C)c1", "> 2890 nM"),
]

// provenance: ChEMBL document CHEMBL1149456
